Entries annotated with measured mass density
# Condition description: 313.15 K; 96.7 kPa; Liquid; Vibrating tube method

Compound	Unit label	mass density
c1ccncc1 [pyridine]	kg/m3	963.02
CC(=O)N(C)C [N,N-dimethylethanamide]	kg/m3	922.66
C[S+](C)[O-] [dimethyl sulfoxide]	kg/m3	1080.3
CCCCCCn1cc[n+](C)c1.[Cl-] [1-hexyl-3-methylimidazolium chloride]	kg/m3	1030.38
CN(C)C=O [dimethylformamide]	kg/m3	929.64

* * *

The molecules listed here are annotated with their viscosity.
# Condition description: 308.15 K; 96.7 kPa; Liquid; Capillary tube (Ostwald / Ubbelohde) method

Molecule	Unit label	viscosity
C[S+](C)[O-] [dimethyl sulfoxide]	mPa·s	1.665
CC(=O)N(C)C [N,N-dimethylethanamide]	mPa·s	0.834
CCCCCCn1cc[n+](C)c1.[Cl-] [1-hexyl-3-methylimidazolium chloride]	mPa·s	3430.8
c1ccncc1 [pyridine]	mPa·s	0.789
CN(C)C=O [dimethylformamide]	mPa·s	0.723
